All values here come from patent US6825230B2.

Test system: chloroquine-resistant K1 strain of P. falciparum
Test: In vitro antimalarial semiautomated microdilution assay ([3H]-hypoxanthine incorporation), K1 strain
Type: cell-based, Plasmodium falciparum
Conditions: Plasmodium falciparum, K1, 72 h, read-out: IC50 (ng/ml) K1, chloroquine-resistant K1 strain, 72 h incubation
Method: Various OZ compounds were tested by the semiautomated microdilution assay against intraerythrocytic forms of Plasmodium falciparum derived from asynchronous stock cultures. Fifty percent inhibitory concentration (IC50) were estimated by Logit regression analysis.
The threshold is 5 ng/mL. Values of IC50 beneath it are tagged 1; values meeting or exceeding it are tagged 0.

[
  {
    "compound": "[N-]=[N+]=NCC[C@H]1CC[C@]2(CC1)OOC1(O2)C2CC3CC(C2)CC1C3 (stereo partly shown) [OZ228]",
    "discrete-label": 1
  },
  {
    "compound": "NC(=O)C[C@H]1CC[C@]2(CC1)OOC1(O2)C2CC3CC(C2)CC1C3 (stereo partly shown) [OZ243]",
    "discrete-label": 1
  },
  {
    "compound": "CN1CCN(C(=O)C[C@H]2CC[C@]3(CC2)OOC2(O3)C3CC4CC(C3)CC2C4)CC1 (stereo partly shown) [OZ227]",
    "discrete-label": 1
  },
  {
    "compound": "CCOC(=O)c1ccc([C@H]2CC[C@]3(CC2)OOC2(O3)C3CC4CC(C3)CC2C4)cc1 (stereo partly shown) [OZ164]",
    "discrete-label": 0
  },
  {
    "compound": "OCC1(CO)COC2(CCC3(CC2)OOC2(O3)C3CC4CC(C3)CC2C4)OC1 (stereo not shown) [OZ121]",
    "discrete-label": 1
  },
  {
    "compound": "O=C(O)c1nccnc1C(=O)N1CCC2(CC1)OOC1(O2)C2CC3CC(C2)CC1C3 (stereo not shown) [OZ109]",
    "discrete-label": 0
  }
]

====

% reduction of adult worms growth at day 49 after per os application of 400 mg/kg, TWR (%) listing for selected compounds.
Test system: Schistosoma mansoni adult worms (49-day-old)
Experiment: Effect on adult schistosomes (49-day-old) in infected mice
Type: in vivo
Conditions: single 400 mg/kg per os, 49-day-old adults; total worm reduction rate
metric-name: % reduction of adult worms growth at day 49 after per os application of 400 mg/kg, TWR (%)

[
  {
    "compound": "O=C(C[C@H]1CC[C@]2(CC1)OOC1(O2)C2CC3CC(C2)CC1C3)N1CCOCC1 (some centres unmarked) [OZ189]",
    "meas-value": 0
  },
  {
    "compound": "O=C(C1CCCCC1)N1CC(=O)N2CCc3ccccc3C2C1 (centres unmarked) [PRAZIQUANTEL, praziquantel, reference compound]",
    "meas-value": 93
  },
  {
    "compound": "CCOC(=O)N1CCC2(CC1)OOC1(O2)C2CC3CC(C2)CC1C3 (centres unmarked) [OZ23]",
    "meas-value": 0
  },
  {
    "compound": "CCCC1CCC2(CC1)OOC1(O2)C2CC3CC(C2)CC1C3 (centres unmarked) [OZ25]",
    "meas-value": 46
  }
]

====

Tested on: P. berghei ANKA strain
Assay: Divided 3x3 mg/kg and 3x1 mg/kg po doses in infected mice
Type: in vivo, Plasmodium berghei
Conditions: 3 × 1 mg/kg p.o. SSV on days 1, 2, 3 post-infection; percent reduction of parasitemia vs control on day 4
Method: Moro NMRI male mice (Fu Albino specific pathogen free) weighing 18±2 g were infected intravenously (i.v.) with 2×10^7 P. berghei ANKA strain-infected erythrocytes from donor mice on day 0 of the experiment. […] They were administered per os (p.o.) in a total volume of 0.01 ml per gram of mouse. The activity of the compound was determined by a variety of methods outlined in subsequent sections. Survival time was also recorded, and survival to day 30 post-infection was considered to be a cure. […]
Listed here: items and their measured Activity (%).

[
  {
    "compound": "OC(c1cc(C(F)(F)F)nc2c(C(F)(F)F)cccc12)C1CCCCN1 (stereo not shown) [MFQ, mefloquine, reference compound]",
    "Activity (%)": "2%"
  },
  {
    "compound": "NC(=O)c1cn(CC2CCC3(CC2)OOC2(O3)C3CC4CC(C3)CC2C4)cn1 (stereo not shown)",
    "Activity (%)": "50%"
  },
  {
    "compound": "C[C@H]1[C@H](OC(=O)CCC(=O)O)O[C@@H]2O[C@@]3(C)CC[C@H]4[C@H](C)CC[C@@H]1[C@@]24OO3 [AS, artesunate, reference compound]",
    "Activity (%)": "39%"
  },
  {
    "compound": "NS(=O)(=O)c1ccc(NCC2CCC3(CC2)OOC2(O3)C3CC4CC(C3)CC2C4)cc1 (stereo not shown)",
    "Activity (%)": "93%"
  },
  {
    "compound": "c1cc(OC[C@H]2CC[C@]3(CC2)OO[C@]2(O3)C3CC4CC(C3)CC2C4)ccn1",
    "Activity (%)": "58%"
  },
  {
    "compound": "CS(=O)(=O)O.NC(=O)CCNCC1CCC2(CC1)OOC1(O2)C2CC3CC(C2)CC1C3 (stereo not shown)",
    "Activity (%)": "92%"
  },
  {
    "compound": "CS(=O)(=O)O.O=C(O)CNCC1CCC2(CC1)OOC1(O2)C2CC3CC(C2)CC1C3 (stereo not shown)",
    "Activity (%)": "66%"
  },
  {
    "compound": "Cc1ccc(S(=O)(=O)O)cc1.O=C(C[C@H]1CC[C@]2(CC1)OO[C@]1(O2)C2CC3CC(C2)CC1C3)N1CCNCC1",
    "Activity (%)": "83%"
  },
  {
    "compound": "CCOC(=O)CNCC1CCC2(CC1)OOC1(O2)C2CC3CC(C2)CC1C3.CS(=O)(=O)O (stereo not shown)",
    "Activity (%)": "14%"
  },
  {
    "compound": "NC(=O)CNC(=O)CC1CCC2(CC1)OOC1(O2)C2CC3CC(C2)CC1C3 (stereo not shown)",
    "Activity (%)": "85%"
  },
  {
    "compound": "Cc1ccc(S(=O)(=O)O)cc1.NCCNC(=O)CC1CCC2(CC1)OOC1(O2)C2CC3CC(C2)CC1C3 (stereo not shown)",
    "Activity (%)": "87%"
  },
  {
    "compound": "Oc1ccc(C2CCC3(CC2)OOC2(O3)C3CC4CC(C3)CC2C4)cc1 (stereo not shown)",
    "Activity (%)": "49%"
  },
  {
    "compound": "O=C(CC1CCC2(CC1)OOC1(O2)C2CC3CC(C2)CC1C3)N1CCC(O)CC1 (stereo not shown)",
    "Activity (%)": "22%"
  }
]
